Numbers sourced from paper PMC9274004.

Target: T1, PDZD7 second PDZ domain (PDZ2 construct; G206 to G292) (mouse, UniProt E9Q9W7-1 206-292)
T1 construct: PDZD7, mouse, long isoform (Uniprot E9Q9W7-1), residues 206-292; source: E. coli BL21 DE3, purified (GSTrap, on-column TEV cleavage, SEC); not shown: GST, N-terminal, cleaved
T1 sequence (looked up): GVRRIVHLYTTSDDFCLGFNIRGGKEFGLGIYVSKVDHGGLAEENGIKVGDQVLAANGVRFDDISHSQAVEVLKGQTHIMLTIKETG
Assay: MST; label-free; PDZ2 at 140 μM in MES pH6 (50 mM) mixed 1:1 with a serial dilution of ADGRV1pbm peptide; apparent Kd
Settings: both partners purified

{"BINDER": "VELRRIPIADTHL (ADGRV1, last 13 residues, free C-terminal carboxylate as printed (-COOH); The other ADGRV1 constructs are murine) [ADGRV1pbm peptide (last 13 residues of ADGRV1, with its PDZ binding motif)]", "Kd [µM]": 313}
